system: Puccinia recondita; assay: Puccinia test (wheat)/protective; format: in vivo; conditions: wheat plants, protective spray, application rate 500 g/ha, evaluation 10 days after inoculation
// Efficacy in % lookup, one value per entry
Reply with a number, then the unit it belongs to.

The molecule listed as "Cc1nc(C(F)F)c(C(=O)Nc2ccccc2C2CCCCC2)s1" shows Efficacy in % equal to 100%

get_value(item= "CC(=O)N(C(=O)c1sc(C)nc1C(F)F)c1ccccc1C1CCCCC1" , readout=Efficacy in %) returns 93%

Efficacy in % for "Cc1nc(C(F)F)c(C(=O)Nc2ccccc2C2CCCCCCC2)s1" is 100%

Sample Cc1nc(C(F)F)c(C(=O)Nc2ccccc2C2CC3CCC2C3)s1 (stereo not shown) ; Efficacy in % observed: 100%

----------
test: logP determination by HPLC on reversed-phase column (EEC directive 79/831 Annex V.A8); assay type: physicochemical; conditions: reversed-phase C18 HPLC column, pH 2.3, C 18 reversed-phase, 43° C., 0.1% aqueous phosphoric acid/acetonitrile gradient
Below: a set of entries, each annotated with reported chromatographic logP.
# output: bare number, no unit

MOLECULE	chromatographic logP
Cc1nc(C(F)F)c(C(=O)Nc2ccc(F)cc2C2CCCC2)s1	3.24
Cc1nc(C(F)F)c(C(=O)Nc2ccccc2C2CCCCC2)s1	3.5

The molecule listed as "Cc1nc(C(F)F)c(C(=O)Nc2ccccc2C2CCCCCCC2)s1" shows chromatographic logP equal to 4.06

Form field chromatographic logP, entry "Cc1nc(C(F)F)c(C(=O)N(C)c2ccccc2C2CCCCC2)s1" : 3.85

chromatographic logP reading for Cc1nc(C(F)F)c(C(=O)Nc2ccccc2C2CC3CCC2C3)s1 (stereo not shown) : 3.63

GET /value?item= Cc1nc(C(F)F)c(C(=O)Nc2ccc(Br)cc2C2CC3CCC2C3)s1 (stereo not shown) &field=chromatographic logP returns 4.27

What the record says about CC(=O)N(C(=O)c1sc(C)nc1C(F)F)c1ccccc1C1CC2CCC1C2 (stereo not shown) : chromatographic logP is 3.95

# chromatographic logP of Cc1nc(C(F)F)c(C(=O)Nc2ccccc2C2CCC[C@@H](C)C2)s1 (stereo partly shown) = 3.88

Item: "CC(=O)N(C(=O)c1sc(C)nc1C(F)F)c1ccccc1C1CCCCC1" | chromatographic logP: 3.86

// chromatographic logP value for Cc1nc(C(F)F)c(C(=O)N(C)c2ccccc2C2CC3CCC2C3)s1 (stereo not shown) : 3.96

----------
test system: Sphaerotheca fuliginea; assay: Sphaerotheca test (cucumber)/protective; assay type: in vivo; conditions: Podosphaera fuliginea, 168 h; cucumber plants, protective spray, application rate 100 g/ha, evaluation 7 days after inoculation; read-out: Efficacy in %
MEASUREMENT_NAME: pest or weed control at 100 g/ha (%)
State the answer as a number, implicitly in %.

Lab note: compound Cc1nc(C(F)F)c(C(=O)Nc2ccccc2C2CCC[C@@H](C)C2)s1 (stereo partly drawn) tested on Sphaerotheca fuliginea; recorded pest or weed control at 100 g/ha was 100

----------
test system: Venturia inaequalis; test: Venturia test (apple)/protective; type: in vivo; conditions: apple plants, protective spray, application rate 100 g/ha, evaluation 10 days after inoculation
MEASUREMENT_NAME: Efficacy in % (%)
Answer format: numeric, % implied, no suffix.

These solved cases illustrate the format of a correct answer.
COMPOUND	RESULT_NUMBER
Cc1nc(C(F)F)c(C(=O)Nc2ccccc2C2CCC[C@@H](C)C2)s1 (stereo partly shown)	100
Cc1nc(C(F)F)c(C(=O)Nc2ccc(Br)cc2C2CC3CCC2C3)s1 (stereo not shown)	100
Cc1nc(C(F)F)c(C(=O)Nc2ccc(F)cc2C2CCCC2)s1	99
Cc1nc(C(F)F)c(C(=O)Nc2ccccc2C2CCCCC2)s1	100
CC(=O)N(C(=O)c1sc(C)nc1C(F)F)c1ccccc1C1CC2CCC1C2 (stereo not shown)	96
Cc1nc(C(F)F)c(C(=O)Nc2ccccc2C2CC3CCC2C3)s1 (stereo not shown)	100

From here, focus on the item given below.
Looking up "Cc1nc(C(F)F)c(C(=O)Nc2ccccc2C2CCCCCCC2)s1" , I found its Efficacy in % recorded as 100

----------
Test system: Sphaerotheca fuliginea
Experiment: Sphaerotheca test (cucumber)/protective
Format: in vivo
Settings: Podosphaera fuliginea, 168 h; cucumber plants, protective spray, application rate 100 g/ha, evaluation 7 days after inoculation; read-out: Efficacy in %
Procedure: Sphaerotheca Test (Cucumber)/Protective • Solvents: 24.5 parts by weight of acetone • 24.5 parts by weight of N,N-dimethylacetamide • Emulsifier: 1 part by weight of alkylaryl polyglycol ether To produce a suitable preparation of active compound, 1 part by weight of active compound is mixed with the stated amounts of solvents and emulsifier, and the concentrate is diluted with water to the desired concentration. […]
Listed next: entries and their corresponding pest or weed control at 100 g/ha.
Express your answer in %, writing the number without its unit.

COMPOUND	MEASUREMENT_NAME	UNIT_LABEL	RESULT_NUMBER
CC(=O)N(C(=O)c1sc(C)nc1C(F)F)c1ccccc1C1CC2CCC1C2 (centres unmarked) [Example 21]	pest or weed control at 100 g/ha	%	98
Cc1nc(C(F)F)c(C(=O)Nc2ccc(Br)cc2C2CC3CCC2C3)s1 (centres unmarked) [Example 14]	pest or weed control at 100 g/ha	%	100

Per the records, this compound ( Cc1nc(C(F)F)c(C(=O)Nc2ccccc2C2CCCCC2)s1 [Example 1] ) has pest or weed control at 100 g/ha equal to 89

// pest or weed control at 100 g/ha value for Cc1nc(C(F)F)c(C(=O)Nc2ccccc2C2CCCCCCC2)s1 [Example 8] : 93

Lab note: Cc1nc(C(F)F)c(C(=O)Nc2ccc(F)cc2C2CCCC2)s1 [Example 6] gave pest or weed control at 100 g/ha of 88

CC(=O)N(C(=O)c1sc(C)nc1C(F)F)c1ccccc1C1CCCCC1 [Example 22] yielded pest or weed control at 100 g/ha of 96

Entry Cc1nc(C(F)F)c(C(=O)N(C)c2ccccc2C2CCCCC2)s1 [Example 20] ; pest or weed control at 100 g/ha = 100

Input Cc1nc(C(F)F)c(C(=O)N(C)c2ccccc2C2CC3CCC2C3)s1 (centres unmarked) [Example 19] . Output pest or weed control at 100 g/ha: 98
